Items are presented alongside their recorded Cmax.
- MEASUREMENT NOTES: Cmax in C57BL/6 mouse at 2 mg/kg, po
- Format: ADME, organism-based
- Parameters: dose 2 mg/kg, route po
- CONDITION SUMMARY: in vivo
Write down the numeric answer in nM and omit the unit.

Ask: Any idea what its Cmax is? The compound is COCCCOc1cc2c(cc1Cl)-c1cc(=O)c(C(=O)O)cn1[C@H](C(C)C)CO2
Reply: 1310

Ask: Which Cmax is listed for COCCCOc1cc2c(cc1C(C)=O)-c1cc(=O)c(C(=O)O)cn1[C@H](C(C)(C)C)CO2 ?
Reply: 604

Ask: For the compound COCCCOc1cc2c(cc1Cl)-c1cc(=O)c(C(=O)O)cn1[C@H](C(C)(C)C)CO2 , what Cmax is on record?
Reply: 203

Would you kindly look at the next entry?
Ask: Sample COCCCOc1cc2c(cc1OC)-c1cc(=O)c(C(=O)O)cn1[C@H](C(C)(C)C)CO2 — what was its Cmax?
Reply: 1060

====

Readings of Vd for the listed compounds
- MEASUREMENT NOTES: Volume of distribution in steady state in Sprague-Dawley rat at 1 mg/kg, iv
- Type: ADME, organism-based
- CONDITION SUMMARY: in vivo, read-out: Vdss

Ask: What does the data say about its Vd? Entry: COCCCOc1cc2c(cc1C(C)=O)-c1cc(=O)c(C(=O)O)cn1[C@H](C(C)(C)C)CO2
Reply: 1 L/kg

Attention now turns to another entry.
Ask: Give its Vd value. Item: COCCCOc1cc2c(cc1OC)-c1cc(=O)c(C(=O)O)cn1[C@H](C(C)(C)C)CO2
Reply: 1.72 L/kg

====

Entries annotated with measured EC50
- System: Hepatitis B virus
- MEASUREMENT NOTES: Antiviral activity against HBV infected in human primary hepatocytes assessed as reduction on HBsAg level by ELISA
- Assay type: functional, organism-based
- CONDITION SUMMARY: Hepatocyte

Ask: Could you share which EC50 value was measured for COCCCOc1cc2c(cc1OC)-c1cc(=O)c(C(=O)O)cn1[C@H](C(C)(C)C)CO2 ?
Reply: 28.2 nM

Shift focus to the following entry.
Ask: Look up EC50 for this compound: C=C1[C@H](CO)[C@@H](O)C[C@@H]1n1cnc2c(=O)[nH]c(N)nc21.O [ENTECAVIR]
Reply: > 0.05 nM

====

- MEASUREMENT NOTES: Half life in Sprague-Dawley rat at 1 mg/kg, iv
- Assay type: ADME, organism-based
- CONDITION SUMMARY: in vivo
MEASURED METRIC: half-life (min)
State just the number; it will be interpreted in min.

Ask: Given COCCCOc1cc2c(cc1OC)-c1cc(=O)c(C(=O)O)cn1[C@H](C(C)(C)C)CO2 , state its recorded half-life.
Reply: 120

Ask: Can you look up the measured half-life of COCCCOc1cc2c(cc1C(C)=O)-c1cc(=O)c(C(=O)O)cn1[C@H](C(C)(C)C)CO2 for me?
Reply: 48

====

- MEASUREMENT NOTES: Microsomal stability in rat liver microsomes assessed as intrinsic clearance measured per mg of protein
- Format: ADME, Microsome
- CONDITION SUMMARY: read-out: CLH
MEASURED METRIC: microsomal CLint

Ask: Please give the measured microsomal CLint for this molecule: COCCCOc1cc2c(cc1OC)-c1cc(=O)c(C(=O)O)cn1[C@H](C(C)(C)C)CO2
Reply: < 7.5 µL/min/mg
